system: 616215-338-R-J1-PDC complex spheroid viability; assay: Anticancer human tumor 616215-338-R-J1-PDC patient-derived colon adenocarcinoma cell line growth inhibition [POLQ]; conditions: second compound 0.0316 µM; first compound 0.1 µM; hits give low values;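 also: spheroids exposed to compounds for one week before readout; percent viability relative to DMSO vehicle wells taken as 100%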
Experimental readout: viability, T/C (%)
Provide only the numeric value, understood in %.

Inquiry: Any idea what its viability, T/C is? The molecule is O=C(c1cc(Cc2n[nH]c(=O)c3ccccc23)ccc1F)N1CCN(C(=O)C2CC2)CC1 + Nc1ccc(C#CCN(C(=O)Cc2ncc(C(F)(F)F)cc2C(F)(F)F)c2ccc(F)cc2)nn1
Reply text: 99

Inquiry: Any idea what its viability, T/C is? The molecule is Cn1ncnc1[C@H]1c2n[nH]c(=O)c3cc(F)cc(c23)N[C@@H]1c1ccc(F)cc1 + Cc1cccc(N(C)C(=O)C2C(O)CCN2c2nc(C)cc(C(F)(F)F)c2C#N)c1
Reply text: 99.3

Inquiry: Any idea what its viability, T/C is? The molecule is CC1COCCN1c1cc(C2(S(C)(=N)=O)CC2)nc(-c2ccnc3[nH]ccc23)n1 (stereo not given) + Nc1ccc(C#CCN(C(=O)Cc2ncc(C(F)(F)F)cc2C(F)(F)F)c2ccc(F)cc2)nn1
Reply text: 96.5

Inquiry: Any idea what its viability, T/C is? The molecule is CCc1cc2c(N3CCc4c(cc(Cn5ccnc5)cc4-c4cn(C)nc4C(F)(F)F)C3=O)ccnc2c(OC)n1 + Cc1cccc(N(C)C(=O)C2C(O)CCN2c2nc(C)cc(C(F)(F)F)c2C#N)c1
Reply text: 102

Inquiry: Any idea what its viability, T/C is? The molecule is C=CCn1c(=O)c2cnc(Nc3ccc(N4CCN(C)CC4)cc3)nc2n1-c1cccc(C(C)(C)O)n1 + Nc1ccc(C#CCN(C(=O)Cc2ncc(C(F)(F)F)cc2C(F)(F)F)c2ccc(F)cc2)nn1
Reply text: 96.9
